System: L1210 leukemia ip in BDF1 mice, survival T/C
Test Method Notes: NCI In Vivo Anticancer Drug Screen. Data for tumor model L1210 Leukemia (intraperitoneal) in B6D2F1 (BDF1) mice
Assay Conditions: endpoint: mean survival time; dose: 100.0 mg/kg/injection; schedule: Q01DX009 (ip); vehicle: Klucel (hydroxypropylcellulose) (HPC); higher = longer survival
Procedure: The antitumor activity of compounds was measured in mice bearing transplantable tumors. Survival or tumor size were measured and the results are expressed as the measurement made in the treated group (T) divided by the measurement made in the vehicle treated control group (C). The tumor model used in this assay is L1210 Leukemia (intraperitoneal) in B6D2F1 (BDF1) mice
Toxic doses and inconclusive results are not listed.
Reported Property: T/C

Take a look at these entries with their results.
[[record]]
molecule = "Cc1cccc(C)c1NC(=O)NCc1ccco1"
reported_property = "T/C"
data_value = "103 % of control"

[[record]]
molecule = "Cc1ccc(-c2cc3ccccc3[nH]2)cc1"
reported_property = "T/C"
data_value = "89 % of control"

[[record]]
molecule = "CC1=CC(=O)C=CC1(C)C"
reported_property = "T/C"
data_value = "94 % of control"

[[record]]
molecule = "CCCCCCCN(CCCCCCC)CC(O)c1cc2ccc(Cl)cc2nc1-c1ccc(Cl)cc1 (stereo unspecified)"
reported_property = "T/C"
data_value = "87 % of control"

[[record]]
molecule = "O=S=Nc1c(Cl)cc(Cl)cc1Cl"
reported_property = "T/C"
data_value = "101 % of control"


Please give T/C for each item listed below.
1. OC1COC(c2ccco2)OC1 (stereo unspecified) (tested in a mixture with another compound)
2. CN(Nc1c([N+](=O)[O-])cc([N+](=O)[O-])cc1[N+](=O)[O-])c1cccc2ccccc12
3. CCOc1ccc(NC(=O)Nc2ccccc2OC)cc1
4. ClC(=C(c1ccccc1)c1ccccc1)c1ccccc1
5. CCCCNC(=O)Nc1ccc(SC)cc1
6. COc1ccc(COC(=O)Nc2ccc(Br)cc2)cc1

1. 94 % of control
2. 97 % of control
3. 97 % of control
4. 92 % of control
5. 103 % of control
6. 101 % of control

Parameter requested: T/C. Apply to each item below.
1. O=C(OCCBr)c1ccc([N+](=O)[O-])cc1
2. C=C(C)C1Cc2c(ccc3c(=O)c4c(oc23)C(O)Oc2cc(OC)c(OC)cc2-4)O1 (stereo unspecified)
3. Nc1cccc(OCCCOc2cccc(N)c2)c1
4. CCOc1ccc(N2CSC(=S)N(c3ccc(OCC)cc3)C2)cc1

1. 106 % of control
2. 93 % of control
3. 101 % of control
4. 96 % of control

Report T/C under test system L1210 leukemia ip in BDF1 mice, survival T/C for O=c1oc(-c2ccccc2I)nc2ccccc12 .
95 % of control

---

System: L1210 leukemia ip in BDF1 mice, survival T/C
Test Method Notes: NCI In Vivo Anticancer Drug Screen. Data for tumor model L1210 Leukemia (intraperitoneal) in B6D2F1 (BDF1) mice
Assay Conditions: endpoint: mean survival time; dose: 150.0 mg/kg/injection; schedule: Q01DX001 (ip); vehicle: saline; higher = longer survival
Inconclusive results and toxic doses are left out.
Provide the reported T/C of each item.

[[record]]
molecule = "Cc1cc(C)c(C(O)C(=O)O)c(C)c1 (stereo unspecified)"
reported_property = "T/C"
data_value = "97 % of control"


Batch request: T/C per item, same order as input.
1. CCOC(=O)N/N=C/c1cccc([N+](=O)[O-])c1
2. Nc1ncnc2nc(-c3ccc(C(=O)c4cccc(NC(=O)Nc5ccc(S(=O)(=O)F)cc5)c4)cc3)[nH]c12
3. CCCC(N)C(O)c1ccccc1 (stereo unspecified)
4. Cc1c2[n+](cc3ccccc13)C(C)CC(=O)N2 (stereo unspecified)
5. C/C=C(\CC)C1(CC)C(=O)NC(=O)NC1=O

["100 % of control", "90 % of control", "100 % of control", "94 % of control", "103 % of control"]

---

Give T/C for every item shown.
Test system: L1210 leukemia ip in BDF1 mice, survival T/C
Test Method Notes: NCI In Vivo Anticancer Drug Screen. Data for tumor model L1210 Leukemia (intraperitoneal) in B6D2F1 (BDF1) mice
Assay Conditions: endpoint: mean survival time; dose: 100.0 mg/kg/injection; schedule: Q01DX009 (ip); vehicle: saline with Tween-80; higher = longer survival
Inconclusive results and toxic doses are left out.

Below, each entry is followed by its recorded T/C result.
[[record]]
compound = "CC1CC(NC(=O)CC#N)CC(C)(C)C1 (stereo not drawn)"
data_value = "90 % of control"

[[record]]
compound = "CC(=O)NC/C(C)=N/Nc1ccc([N+](=O)[O-])cc1[N+](=O)[O-]"
data_value = "102 % of control"

[[record]]
compound = "O=C(Nc1ccc([N+](=O)[O-])cc1)Nc1ccc([N+](=O)[O-])cc1"
data_value = "109 % of control"

[[record]]
compound = "CCOC(=O)CNC(=O)Nc1ccc(C(=O)O)cc1"
data_value = "93 % of control"

[[record]]
compound = "CCOC(=O)C(CCSC(C)=O)SC(C)=O (stereo not drawn)"
data_value = "89 % of control"

[[record]]
compound = "O=[N+]([O-])c1cc([N+](=O)[O-])c2nc3ccccn3c2c1"
data_value = "96 % of control"

[[record]]
compound = "COc1ccccc1-c1c(C(=O)O)cccc1[N+](=O)[O-]"
data_value = "98 % of control"

[[record]]
compound = "CN(C)CCC=C1c2ccccc2-c2ccccc21"
data_value = "111 % of control"


Look at each compound and report its T/C.
1. CCCCCCC(C)Cl (stereo not drawn)
2. CCOC(=O)C(C)C(C)(O)c1ccccc1 (stereo not drawn)
3. COc1cc(/C=C2\C(=O)NC(=O)N(c3ccccc3)C2=O)cc(OC)c1OC
4. C/C=C/C=C\COC(=O)C(C)(C)CCC

1. 105 % of control
2. 95 % of control
3. 100 % of control
4. 90 % of control

---

Give T/C for every item shown.
System: L1210 leukemia ip in BDF1 mice, survival T/C
Test Method Notes: NCI In Vivo Anticancer Drug Screen. Data for tumor model L1210 Leukemia (intraperitoneal) in B6D2F1 (BDF1) mice
Assay Conditions: endpoint: mean survival time; dose: 50.0 mg/kg/injection; schedule: Q01DX009 (ip); vehicle: saline with Tween-80; higher = longer survival
Inconclusive results and toxic doses are left out.

Consider the reported T/C for these molecules:
[[record]]
molecule = "O=[N+]([O-])c1ccc(N=Nc2c(Cl)cc(O)cc2Cl)cc1"
data_value = "89 % of control"

[[record]]
molecule = "COc1cc(/C=C2\\C(=O)NC(=O)N(c3ccccc3)C2=O)cc(OC)c1OC"
data_value = "101 % of control"

[[record]]
molecule = "COc1cc(OC)c(OC)cc1C=NC1CCCCCCC1"
data_value = "91 % of control"


For each listed entry, give its T/C.
1. CS/C(N)=N/N=C(\N)SC
2. C/C=C\c1ccc(OCCOC(=O)Nc2cccc(C(F)(F)F)c2)c(OC)c1
3. CC(C)=CCC/C(C)=C\C1N(C)CCCN1C

1: 95 % of control; 2: 102 % of control; 3: 88 % of control

---

Test system: L1210 leukemia ip in BDF1 mice, survival T/C
Test Method Notes: NCI In Vivo Anticancer Drug Screen. Data for tumor model L1210 Leukemia (intraperitoneal) in B6D2F1 (BDF1) mice
Assay Conditions: endpoint: mean survival time; dose: 400.0 mg/kg/injection; schedule: Q04DX003 (ip); vehicle: Klucel (hydroxypropylcellulose) (HPC); higher = longer survival
Inconclusive results and toxic doses are left out.
Reported Property: T/C

Illustrative cases are given below, each with its answer.
[[record]]
compound = "O=[N+]([O-])c1cccc(N=P(c2ccccc2)(c2ccccc2)c2ccccc2)c1"
reported_property = "T/C"
data_value = "88 % of control"

[[record]]
compound = "NS(=O)(=O)c1ccccc1"
reported_property = "T/C"
data_value = "92 % of control"

[[record]]
compound = "S=C=NC1CCC(CC2CCCCC2)CC1 (stereo unspecified)"
reported_property = "T/C"
data_value = "103 % of control"

[[record]]
compound = "Clc1ccccc1C(N=Cc1ccc[nH]1)(c1ccccc1)c1ccccc1"
reported_property = "T/C"
data_value = "93 % of control"

[[record]]
compound = "COc1ccc(C(=O)NC(=S)Nc2cccc(C)c2C)cc1"
reported_property = "T/C"
data_value = "98 % of control"


State the recorded T/C for every item in the following list.
1. CCCNC1(C(=O)O)CCCc2ccccc21 (stereo unspecified)
2. CC(=O)COc1ccccc1

1: 102 % of control; 2: 95 % of control

Need T/C for each of these compounds.
1. CC(=O)Nc1ccc(/C=N\NC(=O)C2CC2)cc1
2. CC(C)c1ccc(C(c2c(O)c3ccccc3oc2=O)c2c(O)c3ccccc3oc2=O)cc1
3. Nc1ccccc1Oc1ccccc1
4. O=C(/C=C(\CN1CCCCC1)c1ccccc1)c1ccccc1

["87 % of control", "105 % of control", "101 % of control", "96 % of control"]
